- Tested on: iBMDM (immortalised mouse bone-marrow-derived macrophages), LPS-stimulated
- test-summary: mitochondrial superoxide (MitoSOX fluorescence) fold increase over unstimulated control; higher = more LPS-induced mitochondrial ROS (less inhibition)
- conditions: inhibitor concentration: 500 nM; LPS: 100 ng/ml; time after LPS: 4 h
result-type: mitochondrial superoxide
Please respond with just the number, no unit label.

Examples from the recorded data:
compound	reported-value
Clc1ccc(C2(c3ccc(-c4cn[nH]c4)cc3)CCNCC2)cc1	1.25
CCN1CCN(c2ccc(Nc3cc(N(C)C(=O)Nc4c(Cl)c(OC)cc(OC)c4Cl)ncn3)cc2)CC1	1.35
Oc1ccc(-c2nc(-c3ccc(F)cc3)c(-c3ccncc3)[nH]2)cc1	1.57
Cn1cc(-c2[nH]c3cc(NC(=O)[C@H](N)C4CCCCC4)cc4c3c2C=NNC4=O)cn1	1.27

Now for a further compound.
Param item = Nc1ncnc2c1c(-c1cccc(OCc3ccccc3)c1)cn2C1CC(CN2CCCC2)C1 (stereo not given) ; retrieve measured mitochondrial superoxide.
1.62

----------
List of mitochondrial superoxide values.
- Tested on: iBMDM (immortalised mouse bone-marrow-derived macrophages), LPS-stimulated
- test-summary: mitochondrial superoxide (MitoSOX fluorescence) fold increase over unstimulated control; higher = more LPS-induced mitochondrial ROS (less inhibition)
- conditions: inhibitor concentration: 500 nM; LPS: 100 ng/ml; time after LPS: 4 h
Please reply with the value in numeric form only.

molecule	study-target	mitochondrial superoxide
Nc1cccc(-c2cc3c(Oc4cccc(O)c4)ncnc3[nH]2)c1	iBMDM (immortalised mouse bone-marrow-derived macrophages), LPS-stimulated	1.25
CN(C)c1ccc(-c2nc3ncc(Cl)c(N4CCN(CC(=O)Nc5nccs5)CC4)c3[nH]2)cc1	iBMDM (immortalised mouse bone-marrow-derived macrophages), LPS-stimulated	1.35

Quick one: mitochondrial superoxide of COc1cccc(-c2cc(=O)c3ccccc3o2)c1N ?
1.67

Name the recorded mitochondrial superoxide for Cc1ccc2nc(NCCN)c3ncc(C)n3c2c1 .
1.63

Sample CC(C)(C)c1cc(NC(=O)Nc2ccc(-c3cn4c(n3)sc3cc(OCCN5CCOCC5)ccc34)cc2)no1 [Quizartinib (AC220)] — what was its mitochondrial superoxide?
1.31

For O=C(NCc1cccc(O)c1)Nc1nc(-c2ccncc2)cs1 , what is its reported mitochondrial superoxide?
1.64

For the molecule FC(F)(F)c1ccc(/C=C/c2nc(COc3ccc(CCCCn4ccnn4)cc3)co2)cc1 [Mubritinib (TAK 165)] , what mitochondrial superoxide is on record?
1.3

What value of mitochondrial superoxide has been recorded for this entry: C=CC(=O)Nc1cc2c(Nc3ccc(F)c(Cl)c3)ncnc2cc1OCCCN1CCOCC1 [Canertinib (CI-1033)]
1.87

----------
- System: iBMDM (immortalised mouse bone-marrow-derived macrophages), LPS-stimulated
- test-summary: mitochondrial superoxide (MitoSOX fluorescence) fold increase over unstimulated control; higher = more LPS-induced mitochondrial ROS (less inhibition)
- conditions: inhibitor concentration: 500 nM; LPS: 100 ng/ml; time after LPS: 2 h
Counter-ions that a name gives are not always drawn.
result-type: mitochondrial superoxide
# output: bare number, no unit

compound	study-target	mitochondrial superoxide
Cn1cc(-c2ccc3nnc(Sc4ccc5ncccc5c4)n3n2)cn1	iBMDM (immortalised mouse bone-marrow-derived macrophages), LPS-stimulated	1.4

# returns recorded mitochondrial superoxide (system: iBMDM (immortalised mouse bone-marrow-derived macrophages), LPS-stimulated) for N#Cc1c(O)c2c(-c3ccc(-c4ccccc4O)cc3)csc2[nH]c1=O
1.43

Quick check: mitochondrial superoxide on iBMDM (immortalised mouse bone-marrow-derived macrophages), LPS-stimulated, item CN1CCN(CCOc2cc(OC3CCOCC3)c3c(Nc4c(Cl)ccc5c4OCO5)ncnc3c2)CC1 ?
1.63

API: value(readout=mitochondrial superoxide, system=iBMDM (immortalised mouse bone-marrow-derived macrophages), LPS-stimulated) for record Nc1cccc(-c2cc3c(Oc4cccc(O)c4)ncnc3[nH]2)c1
1.17

What measured mitochondrial superoxide is associated with CC(C)(C)c1cnc(CSc2cnc(NC(=O)C3CCNCC3)s2)o1 on iBMDM (immortalised mouse bone-marrow-derived macrophages), LPS-stimulated?
1.43

Missing value: mitochondrial superoxide, iBMDM (immortalised mouse bone-marrow-derived macrophages), LPS-stimulated, entry NC1(Cc2ccc(Cl)cc2)CCN(c2ncnc3[nH]ccc23)CC1 . Fill in?
1.43

Request body: readout mitochondrial superoxide, system iBMDM (immortalised mouse bone-marrow-derived macrophages), LPS-stimulated, query O=S(=O)(c1cccc2cnccc12)N1CCCNCC1 [Fasudil (HA-1077) HCl] . Return the value.
1.12

Give mitochondrial superoxide (iBMDM (immortalised mouse bone-marrow-derived macrophages), LPS-stimulated) of the following compound: COc1ccc2cc(-c3nc(-c4ccc([S+](C)[O-])cc4)[nH]c3-c3ccncc3)ccc2c1 (centres undefined)
1.09

What is its mitochondrial superoxide for iBMDM (immortalised mouse bone-marrow-derived macrophages), LPS-stimulated? Entry: O=C1NC(=O)/C(=C/c2cccc(C(F)(F)F)c2)S1
1.35

Entry CNC(=O)Nc1ccc(-c2nc(N3CC4CCC(C3)O4)c3cnn(C4CCC5(CC4)OCCO5)c3n2)cc1 , system iBMDM (immortalised mouse bone-marrow-derived macrophages), LPS-stimulated: what mitochondrial superoxide was measured?
1.45

What mitochondrial superoxide appears in the records for this compound with iBMDM (immortalised mouse bone-marrow-derived macrophages), LPS-stimulated? CCCCCCCCCCCCc1ccc(S(=O)(=O)Nc2nncs2)cc1
1.2

Item: O=C(Nc1c[nH]nc1-c1nc2ccc(CN3CCOCC3)cc2[nH]1)NC1CC1 Test system: iBMDM (immortalised mouse bone-marrow-derived macrophages), LPS-stimulated Read-out: mitochondrial superoxide Value: ?
1.42

----------
- System: iBMDM (immortalised mouse bone-marrow-derived macrophages), LPS-stimulated
- test-summary: mitochondrial superoxide (MitoSOX fluorescence) fold increase over unstimulated control; higher = more LPS-induced mitochondrial ROS (less inhibition)
- conditions: inhibitor concentration: 500 nM; LPS: 100 ng/ml; time after LPS: 1 h
result-type: mitochondrial superoxide

compound	mitochondrial superoxide
O=C(Nc1ccc(OC(F)(F)F)cc1)c1sccc1NCc1ccnc2ccccc12	1.21
Cn1cnc(=N)c2[nH]cnc21 [3-Methyladenine]	1.25
Cc1[nH]c(/C=C2\C(=O)Nc3ccccc32)c(C)c1CCC(=O)O [TSU-68 (SU6668, Orantinib)]	2.12
Cc1nc(Nc2ncc(C(=O)Nc3c(C)cccc3Cl)s2)cc(N2CCN(CCO)CC2)n1 [Dasatinib]	1.51

Please tell me: mitochondrial superoxide of Cc1[nH]c(/C=C2\C(=O)Nc3ccc(S(=O)(=O)Cc4c(Cl)cccc4Cl)cc32)c(C)c1C(=O)N1CCC[C@@H]1CN1CCCC1 , system iBMDM (immortalised mouse bone-marrow-derived macrophages), LPS-stimulated?
1.56

----------
# mitochondrial superoxide values compiled below
- Test system: iBMDM (immortalised mouse bone-marrow-derived macrophages), LPS-stimulated
- test-summary: mitochondrial superoxide (MitoSOX fluorescence) fold increase over unstimulated control; higher = more LPS-induced mitochondrial ROS (less inhibition)
- conditions: inhibitor concentration: 500 nM; LPS: 100 ng/ml; time after LPS: 2 h
Provide a numeric answer; units are not to be included.

These recorded examples may help you get a feel for the data.
smiles-data	mitochondrial superoxide
CCN1CCN(c2ccc(Nc3cc(N(C)C(=O)Nc4c(Cl)c(OC)cc(OC)c4Cl)ncn3)cc2)CC1	1.24
C[C@H](Nc1ncnc2nc[nH]c12)c1cc2cccc(Cl)c2c(=O)n1-c1ccccc1	1.2
O=C(NOC[C@H](O)CO)c1ccc(F)c(F)c1Nc1ccc(I)cc1F	1.64
CC(C)(C)c1nc(-c2cccc(NS(=O)(=O)c3c(F)cccc3F)c2F)c(-c2ccnc(N)n2)s1	1.43

Note: attention shifts to another entry.
Need mitochondrial superoxide of Cc1c(NC(=O)OC[C@@H]2COCCN2)cn2ncnc(Nc3ccc4c(cnn4Cc4cccc(F)c4)c3)c12 , thanks.
1.74

----------
mitochondrial superoxide values for the molecules below.
- Tested on: iBMDM (immortalised mouse bone-marrow-derived macrophages), LPS-stimulated
- test-summary: mitochondrial superoxide (MitoSOX fluorescence) fold increase over unstimulated control; higher = more LPS-induced mitochondrial ROS (less inhibition)
- conditions: inhibitor concentration: 500 nM; LPS: 100 ng/ml; time after LPS: 4 h
Give only the figure.

molecule	reported-value
CO[C@H]1C[C@@H]2CC[C@@H](C)[C@@](O)(O2)C(=O)C(=O)N2CCCC[C@H]2C(=O)O[C@H]([C@H](C)C[C@@H]2CC[C@@H](OP(C)(C)=O)[C@H](OC)C2)CC(=O)[C@H](C)/C=C(\C)[C@@H](O)[C@@H](OC)C(=O)[C@H](C)C[C@H](C)/C=C/C=C/C=C/1C [Ridaforolimus (Deforolimus, MK-8669)]	1.78
N#Cc1c(O)c2c(-c3ccc(-c4ccccc4O)cc3)csc2[nH]c1=O	1.52
CN(C[C@@H]1COCCO1)S(=O)(=O)Nc1ccc2ccc3ncc(-c4cnn(C)c4)cc3c(=O)c2c1	1.76
Cn1cc(-c2ccc3nnc(C(F)(F)c4ccc5ncccc5c4)n3n2)cn1	1.5
CCS(=O)(=O)Nc1ccc2[nH]c(O)c(C(=Nc3ccc(CN4CCCCC4)cc3)c3ccccc3)c2c1 [Hesperadin]	1.28

Quick check: mitochondrial superoxide of CNC(=O)c1nn(C)c2c1C(C)(C)Cc1cnc(Nc3ccc(N4CCN(C)CC4)cc3)nc1-2 ?
1.64
